Test: in vivo
Conditions: female, Labrador retriever, dog, po, 0.3 mg/kg
Measure name: half-life (h)
Give the value, in units of h, as a plain number.

Which half-life is reported for this compound? `CC(=O)N1CCC(NC(=O)NC23CC4CC(CC(C4)C2)C3)CC1`
1.7

* * *

Molecular target: human sEH (human liver cytosol) (Homo sapiens)
Measure name: IC50 (µM)
Give the value, in units of µM, as a plain number.

human sEH (human liver cytosol) (Homo sapiens) / IC50 / `CS(=O)(=O)N1CCC(NC(=O)Nc2ccc(OC(F)(F)F)cc2)CC1` : value?
0.026

* * *

Experiment: experimental LogP determination
Details: 1-octanol / 0.1 M sodium phosphate buffer, pH 7.4
Measure name: logP at 24 h

CS(=O)(=O)N1CCC(NC(=O)Nc2ccc(OC(F)(F)F)cc2)CC1 1.9

Which logP at 24 h is reported for this compound? `O=C(O)CCCCCCCCCCCNC(=O)NC12CC3CC(CC(C3)C1)C2`
3

Repeat with `CCOCCOCCOCCCCCNC(=O)NC12CC3CC(CC(C3)C1)C2`
2.6

* * *

Assay: in vivo
Conditions: female, Labrador retriever, dog, po, 0.3 mg/kg
Measure name: Tmax (h)
Give the value, in units of h, as a plain number.

Which Tmax is reported for this compound? `CC(=O)N1CCC(NC(=O)NC23CC4CC(CC(C4)C2)C3)CC1`
1

* * *

Biological target: recombinant human soluble epoxide hydrolase (Homo sapiens, UniProt P34913)
Sequence (P34913 1-555): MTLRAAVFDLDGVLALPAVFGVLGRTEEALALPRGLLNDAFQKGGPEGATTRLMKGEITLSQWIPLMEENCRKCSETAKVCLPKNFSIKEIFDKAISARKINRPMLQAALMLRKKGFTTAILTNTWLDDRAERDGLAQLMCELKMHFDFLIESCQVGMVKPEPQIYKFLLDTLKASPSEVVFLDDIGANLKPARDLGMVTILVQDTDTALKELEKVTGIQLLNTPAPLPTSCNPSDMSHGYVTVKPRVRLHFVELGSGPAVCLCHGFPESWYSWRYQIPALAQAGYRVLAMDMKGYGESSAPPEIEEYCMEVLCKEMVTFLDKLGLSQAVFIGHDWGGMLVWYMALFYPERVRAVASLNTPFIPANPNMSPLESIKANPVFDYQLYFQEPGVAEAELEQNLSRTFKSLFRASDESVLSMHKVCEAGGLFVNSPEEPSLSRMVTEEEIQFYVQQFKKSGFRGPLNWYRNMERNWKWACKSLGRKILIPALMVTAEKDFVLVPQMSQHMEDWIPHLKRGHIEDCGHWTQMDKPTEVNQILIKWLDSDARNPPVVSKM
Test: fluorescent assay with CMNPC substrate, recombinant human sEH
Assay type: biochemical
Measure name: IC50 (nM)
Give the value, in units of nM, as a plain number.

recombinant human soluble epoxide hydrolase (Homo sapiens, UniProt P34913) / IC50 / `COC(=O)c1ccc(NC(=O)NC23CC4CC(CC(C4)C2)C3)cc1O` : value?
3

* * *

Assay: in vivo
Settings: female, Labrador retriever, dog, po, 0.3 mg/kg
Measure name: Cmax (nM)
Give the value, in units of nM, as a plain number.

Which Cmax is reported for this molecule? CC(=O)N1CCC(NC(=O)NC23CC4CC(CC(C4)C2)C3)CC1 [compound 14]
80

* * *

Experiment: compartmental pharmacokinetics after i.v. administration in dogs
Settings: female, Labrador retriever, dog, plasma, iv
Measure name: half-life (min)
Give the value, in units of min, as a plain number.

Which half-life is reported for this compound? `CCOCCOCCOCCCCCNC(=O)NC12CC3CC(CC(C3)C1)C2`
9.6

Every entry's value here was drawn from paper PMC3285443.
